systemUnderTest: Platelet-activating factor acetylhydrolase IB subunit alpha1 (Homo sapiens) (UniProt Q15102)
Sequence (Q15102 whole entry, looked up): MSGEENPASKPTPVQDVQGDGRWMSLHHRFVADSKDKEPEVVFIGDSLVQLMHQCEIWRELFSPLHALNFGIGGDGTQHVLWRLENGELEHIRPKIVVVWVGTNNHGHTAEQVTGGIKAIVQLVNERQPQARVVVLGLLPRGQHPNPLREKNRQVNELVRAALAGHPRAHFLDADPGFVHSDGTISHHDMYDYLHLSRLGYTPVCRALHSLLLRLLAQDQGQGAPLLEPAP
protocolText: PAFAH1B3 enzyme inhibitors, primary screen, biochemical, fluorescence polarization, human (AID 492972);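 also: 0% = enzyme with DMSO only and 100% = wells lacking PAFAH1B3 protein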
settings: recombinant PAFAH1B3, FP-rhodamine probe, at 3.39 µM, hits give high values
Out of some 340,000 compounds screened, about 930 (0.27%) were called active. What follows is part of a selection rich in actives, with near analogues and random picks from the rest.
Record form. Attribute: inhibition. Fill in for each entry.
Give bare numbers, in %.

molecule: Cc1cc(NC(=O)CCC(=O)N(CC(=O)NCC2CCCO2)c2ccccc2)no1 (stereo not given)
measurement: -3.62

molecule: Cc1ccc(N2C(=O)S/C(=C/c3cn(C)c4ccccc34)C2=O)cc1
measurement: 1.18

molecule: CCCc1ccc(OCC(O)CN2CCN(C(=O)OCC)CC2)cc1 (stereo not given)
measurement: -2.88

molecule: COc1ccc(C2=NS(=O)(=O)N(C)C(C(=O)N(C)Cc3ccccc3)=C2)cc1
measurement: 9.43

Pending molecule:
Prompt: I have this molecule here, CCn1ncc(C2=NOC(C(=O)Nc3ccccc3C(=O)OC)C2)c1C (stereo not given) , and I need its recorded inhibition.
Completion: 9.12
